meta.source: ChEMBL document CHEMBL1275399

Target: Platelet-derived growth factor receptor beta (Homo sapiens)
Sequence (P09619 whole entry): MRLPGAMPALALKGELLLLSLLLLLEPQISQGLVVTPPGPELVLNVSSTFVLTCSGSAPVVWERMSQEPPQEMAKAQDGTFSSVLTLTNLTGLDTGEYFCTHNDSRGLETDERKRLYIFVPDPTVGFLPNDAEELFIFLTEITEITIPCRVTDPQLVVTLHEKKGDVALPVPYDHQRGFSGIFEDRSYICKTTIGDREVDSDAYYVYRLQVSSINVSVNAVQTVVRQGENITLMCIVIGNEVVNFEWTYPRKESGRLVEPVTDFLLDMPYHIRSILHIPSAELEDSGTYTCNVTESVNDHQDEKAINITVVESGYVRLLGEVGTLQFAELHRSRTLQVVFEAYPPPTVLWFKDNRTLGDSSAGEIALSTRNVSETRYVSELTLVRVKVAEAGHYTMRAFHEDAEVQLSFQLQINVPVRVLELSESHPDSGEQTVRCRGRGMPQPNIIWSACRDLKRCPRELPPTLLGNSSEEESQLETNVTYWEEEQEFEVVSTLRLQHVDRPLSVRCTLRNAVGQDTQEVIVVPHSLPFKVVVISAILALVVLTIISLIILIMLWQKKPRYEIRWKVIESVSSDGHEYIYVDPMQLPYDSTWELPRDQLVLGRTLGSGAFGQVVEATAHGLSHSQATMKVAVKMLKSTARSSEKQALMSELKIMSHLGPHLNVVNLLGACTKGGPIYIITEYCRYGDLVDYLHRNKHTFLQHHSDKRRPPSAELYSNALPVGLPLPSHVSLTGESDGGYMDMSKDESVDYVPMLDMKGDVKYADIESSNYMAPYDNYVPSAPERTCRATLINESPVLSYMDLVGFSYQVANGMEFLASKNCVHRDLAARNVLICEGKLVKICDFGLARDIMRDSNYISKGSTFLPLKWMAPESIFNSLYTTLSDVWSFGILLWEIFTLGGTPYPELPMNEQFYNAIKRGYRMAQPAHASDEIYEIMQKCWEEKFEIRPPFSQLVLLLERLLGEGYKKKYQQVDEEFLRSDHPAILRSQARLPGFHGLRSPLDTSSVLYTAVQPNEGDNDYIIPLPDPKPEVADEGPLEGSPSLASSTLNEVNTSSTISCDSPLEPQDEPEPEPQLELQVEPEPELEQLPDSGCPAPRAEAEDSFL
Field 'label' (enum: 1.0 / 0.0). Set to 1.0 when IC50 is strictly under 4 nM; else 0.0.

Lookup: Identify whether the molecule `Cc1c(/C=C2\C(=O)Nc3ccc(F)cc32)[nH]c2c1C(=O)N(C[C@H](O)CN1CCOCC1)CCC2` records IC50 below 4 nM.
Found: 0.0

Lookup: Record `CCN(CC)CCN1CCc2[nH]c(/C=C3\C(=O)Nc4ccc(Cl)cc43)c(C)c2C1=O` : is its IC50 strictly below 4 nM?
Found: 1.0

Lookup: Bench note: check whether `CCN(CC)CCN1CCCCc2[nH]c(/C=C3\C(=O)Nc4ccc(F)cc43)c(C)c2C1=O` shows IC50 below 4 nM
Found: 0.0

Lookup: Lab note: confirm whether the reported IC50 for this molecule is below 4 nM, equality not counting. molecule: `CCN(CC)CCN1CCc2[nH]c(/C=C3\C(=O)Nc4ccc(Br)cc43)c(C)c2C1=O`
Found: 1.0

Lookup: IC50 strictly < 4 nM for this molecule? `CCN(CC)CCN1CCCc2[nH]c(/C=C3\C(=O)Nc4ccc(F)cc43)c(C)c2C1=O`
Found: 0.0
